- ASSAYED SYSTEM: T1, human LAG3 (form used in Octet, Biacore and HDX-MS not given) (human, UniProt P18627 23-450, limits assumed)
- T1 sequence (looked up): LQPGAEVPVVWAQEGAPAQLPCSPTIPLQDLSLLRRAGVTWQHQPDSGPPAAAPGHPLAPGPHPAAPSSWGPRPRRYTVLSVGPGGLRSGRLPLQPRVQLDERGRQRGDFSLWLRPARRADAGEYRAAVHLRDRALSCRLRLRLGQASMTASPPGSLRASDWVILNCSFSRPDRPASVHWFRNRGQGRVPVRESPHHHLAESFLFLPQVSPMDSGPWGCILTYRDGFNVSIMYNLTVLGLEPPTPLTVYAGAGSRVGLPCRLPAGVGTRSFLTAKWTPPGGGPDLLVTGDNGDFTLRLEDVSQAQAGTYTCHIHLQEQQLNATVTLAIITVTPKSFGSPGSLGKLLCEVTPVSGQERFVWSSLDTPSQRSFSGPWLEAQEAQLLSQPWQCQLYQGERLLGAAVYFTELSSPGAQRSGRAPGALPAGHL
- ASSAY NOTES: BLI (Octet), 1:1 fit
OUTCOME MEASURE: pKd
Scale explanation: pKd corresponds to minus log10 of a concentration expressed in moles per litre.

query: I would be grateful if you could share the reported pKd for hu029.55 (antibody, V domains shown, humanized from 029c) VH: QVQLVESGGGLVKPGGSLRLSCAASGFTFSSYAMSWIRQAPGKGLEWVSYVTSGGDYIYYADTVKGRFTISRDDAKNSLYLQMNSLRAEDTAVYYCTRVAYDYEWYFDVWGQGTLVTVSS VL: DIQMTQSPSSVSASVGDRVTITCKASQDVTTAVAWYQQKPGKAPKLLIYSASYRYTGVPSRFSGSGSGTDFTLTISSLQPEDFATYYCQQHDSSPWTFGQGTKLEIK .
result: 8.35

query: Would you mind doing 029c (antibody, human IgG4, V domains shown, human IgG4 S228P / kappa chimeric antibody; also called chimeric antibody 029; not shown: human kappa light chain constant region (pcDNA3.4-hIgGk vector)) VH: DVKLVESGEDLVKPGGSLKLSCAASGFTFSSYAMSWVRQTPEKRLEWVAYVTSGGDYIYYADTVKGRFTISRDDVRNTLYLQMSSLKSEDTAMYYCTRVAYDYEWYFDVWGTGAPVTVSS VL: DIVMTQSHKFMSTSVGDRVSITCKASQDVTTAVAWYQQKPGQSPKLLIYSASYRYTGVSDRFTGSGSGTDFTFTISSVQAEDLALYYCQQHDSSPWTFGGGTKLEIK as well?
result: 8.11

query: Would you mind doing 021c (antibody, human IgG4, V domains shown, human IgG4 S228P / kappa chimeric antibody; also called chimeric antibody 021; not shown: human kappa light chain constant region (pcDNA3.4-hIgGk vector)) VH: DIQLQESGPGLVKPSQSLSLTCSVTGYSITSGYYWNWIRQFPGNKLEWMGDISYDGGNNYNPSLKNRISITRDTSKNQFFLKLNSVTTEDTATYYCARDITLTGAMDYWGQGTSVTVSS VL: DIVLTQSPASLAVSLGQRATISCRASESVDNYGISFMHWYQQRPGQPPKLLIYRASNLESGIPARFSGSGSRTDFTLTINPVETDDVATYYCQQSNKDPYTFGGGTKLEIK as well?
result: 8.27
